Target: T1, hPLD3 luminal domain (Homo sapiens, UniProt Q8IV08 61-490)
T1 sequence: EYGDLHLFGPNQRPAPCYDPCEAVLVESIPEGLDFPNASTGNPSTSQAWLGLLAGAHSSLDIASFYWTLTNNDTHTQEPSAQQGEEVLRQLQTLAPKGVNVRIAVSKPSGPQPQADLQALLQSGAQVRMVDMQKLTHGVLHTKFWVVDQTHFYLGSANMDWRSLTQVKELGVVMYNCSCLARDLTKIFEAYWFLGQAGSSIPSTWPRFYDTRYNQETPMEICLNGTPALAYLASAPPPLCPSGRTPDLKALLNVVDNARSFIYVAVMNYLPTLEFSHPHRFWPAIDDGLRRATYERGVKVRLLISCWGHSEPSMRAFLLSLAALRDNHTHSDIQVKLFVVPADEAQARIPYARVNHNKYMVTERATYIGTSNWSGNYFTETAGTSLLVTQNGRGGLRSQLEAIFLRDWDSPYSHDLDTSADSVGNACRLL
Assay: ITC; N = 1.0; dH -12 kcal/mol; no phosphorothioate, cleavable substrate; ITC: 20 mM HEPES pH 7.5, 150 mM NaCl, 10 C; 380 uM ssDNA in syringe, 10 uM hPLD3 in cell. Crystals: 15% PEG 4000, 0.02 M NaI, 0.9 M ammonium sulfate, 15% glycerol
Conditions: protein: recombinant; tags: C-terminal 6xHis; chain copies: 2; single strand
pKd: −log10 of the molar value.
ASSAY_METRIC: pKd

BINDER: TTCATG (ssDNA)
NUMERIC_READOUT: 4.70
